- system_under_test: human CYP11B2 (Homo sapiens)
- Sequence (P19099 25-503): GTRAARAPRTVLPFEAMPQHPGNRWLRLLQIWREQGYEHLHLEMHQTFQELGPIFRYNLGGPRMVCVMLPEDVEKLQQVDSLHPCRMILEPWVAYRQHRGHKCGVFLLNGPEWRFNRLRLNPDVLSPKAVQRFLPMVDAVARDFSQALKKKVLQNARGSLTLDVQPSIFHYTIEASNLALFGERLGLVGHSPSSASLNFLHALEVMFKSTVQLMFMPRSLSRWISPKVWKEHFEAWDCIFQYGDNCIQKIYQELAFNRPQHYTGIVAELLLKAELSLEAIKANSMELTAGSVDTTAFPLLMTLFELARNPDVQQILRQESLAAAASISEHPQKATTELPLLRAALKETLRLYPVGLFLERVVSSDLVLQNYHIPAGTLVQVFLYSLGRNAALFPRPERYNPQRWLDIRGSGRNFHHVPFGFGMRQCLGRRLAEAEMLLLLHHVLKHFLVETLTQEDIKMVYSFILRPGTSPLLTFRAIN
- experiment: Inhibition of hCYP11B2 in transfected V79 cells
- measurement_parameters: hamster V79 cells expressing human CYP11B2; substrate 11-deoxycorticosterone 200 nM
- Method: Genes of human CYP11B2 and rat NADPH-P450 reductase were transfected into hamster V79 cells using a lentivirus vector, and stably-expressing cell lines were selected by taking advantages of the associated puromycin-resistance gene. […] Subsequently, the substrate and product(s) were quantified using LC-MS/MS or HPLC at 260 nm, and the IC50 values were calculated according to inhibitory percentage.
pIC50: −log10 of the molar value.
assay_endpoint: pIC50

| smiles_notation | pIC50 |
| --- | --- |
| O=S(=O)(N1CCn2cnnc2C1)N1CCSc2c(-c3cc4cc(Cl)ccc4o3)cncc21 | 7.44 |
| COc1ccc(S(=O)(=O)N2CCSc3c(-c4ccc(C(F)(F)F)cc4)cncc32)cc1 | 7.99 |
| N#Cc1ccc(-c2cncc3c2OCCN3C(=O)CCc2ccc(Cl)cc2)cc1 | 8.80 |

I. CN1CCN(S(=O)(=O)c2ccc(C#N)cc2)c2cncc(-c3ccc(C#N)cc3)c21
II. N#Cc1ccc(-c2cncc3c2ccn3S(=O)(=O)c2cccs2)cc1
I or II : whose pIC50 is greater? Reply briefly: the label of your chosen item. II
(II: 10.00, I: 9.22)

a. N#Cc1ccc(-c2cncc3c2OCCN3C(=O)C2CN(c3cccc(F)c3)C2)cc1
b. N#Cc1ccc(-c2cncc3c2CCN3S(=O)(=O)c2ccc([N+](=O)[O-])cc2)cc1
Of a and b , whose reported pIC50 is numerically smaller? I would appreciate it if you answered with the label of your choice. a

P. Cc1ccccc1CC(=O)N1CCOc2c(-c3ccc(C#N)cc3)cncc21
Q. N#Cc1ccc(-c2cncc3c2CCN3C(=O)c2ccccc2[N+](=O)[O-])cc1
I'd appreciate it if you could identify which of P and Q has the greater pIC50. Choose, then provide that item's label. P

====

- system_under_test: UniProtKB P19099
- experiment: Inhibition of hCYP11B2 in transfected V79 cells
- measurement_parameters: hamster V79 cells expressing human CYP11B2; substrate 11-deoxycorticosterone 200 nM
assay_endpoint: IC50 (nM)

I. N#Cc1ccc(CN2CC(S(=O)(=O)N3CCOc4c(-c5ccc(C#N)cc5)cncc43)C2)cc1 [O121]
II. N#Cc1ccc(-c2cncc3c2ccn3C(=O)c2ccc(C(F)(F)F)cc2)cc1 [E20]
III. N#CN1CC=C(c2cncc3c2OCCN3C(=O)C2CN(Cc3cccc(F)c3)C2)CC1 [O97]
Put the listed items above in order, lowest IC50 first. List the labels, following the order given in the request. I, II, III

P. N#Cc1ccc(-c2cncc3c2CCN3S(=O)(=O)c2cccc3ccccc23)cc1 [C18]
Q. O=C(C1CN(Cc2cccc(F)c2)C1)N1CCOc2c(-c3cc4ccc(Cl)cc4[nH]3)cncc21 [O91]
Identify the item whose IC50 is the smaller number: P or Q Write down the label attached to your selection. P

a. COc1ccc(S(=O)(=O)N2CCSc3c(-c4ccc(C#N)c(F)c4)cncc32)cc1 [S35]
b. N#Cc1ccc(S(=O)(=O)N2CCSc3c(-c4ccc5occc5c4)cncc32)cc1 [S44]
// pick larger IC50 from pair: a vs b // respond with label for picked entry b
(b: 46 nM, a: 0.12 nM)

a. N#Cc1ccc(-c2cncc3c2OCCN3S(=O)(=O)c2cccc(C(F)(F)F)c2)cc1 [O12]
b. N#Cc1ccc(-c2cncc3c2CCN3S(=O)(=O)c2ccc(Cl)nc2)cc1 [C5]
Quick one: lower IC50, a or b ? Answer = label. a
